Cited source: patent US11578055B2

A collection of compounds and their measured Liver Microsome Stability-% Left after 30 min w/ NADPH (%) Rat
# ASSAY PROTOCOL: In Vitro Microsome Stability Assay (rat)
# Format: in vitro ADME
# CONDITION SUMMARY: rat, 30 min, NADPH
Counter-ions that a name gives are not always drawn.
The response must be a number in % with no trailing unit.

C=C1CN(S(=O)(=O)c2ccc(C)cc2)CCCN(Cc2ccccc2)CCCN(S(=O)(=O)c2ccc(C)cc2)C1 [A1] | 0.12
C=C1CN(S(=O)(=O)c2ccc(C)cc2)CCCN(CC2CCCCC2)CCCN(S(=O)(=O)C2CCCCC2)C1 [A5] | 0.24
CN(C)c1ccc(S(=O)(=O)N2CCCN(CC3CCCCC3)CCCN(S(=O)(=O)N3CCCCC3)CC3(CC3)C2)cc1 [A19, hydrochloride] | 0.1
C=C1CN(S(=O)(=O)c2ccc(N(C)C)cc2)CCCN(CC2CCCCC2)CCCN(S(=O)(=O)N2CCC(OC(C)C)CC2)C1 [A66] | 0.39
CN(C)c1ccc(S(=O)(=O)N2CCCN(CC3CCCCC3)CCCN(S(=O)(=O)N3CCCCC3)CC3(CC3)C2)c(F)c1 [A40] | 0.12

State its Liver Microsome Stability-% Left after 30 min w/ NADPH (%) Rat for this compound: C=C1CN(S(=O)(=O)c2ccc(N(C)C)cc2)CCCN(CC2CCCCC2)CCCN(S(=O)(=O)N2CCN(c3ccccc3Cl)CC2)C1 [A83] 47.6

State its Liver Microsome Stability-% Left after 30 min w/ NADPH (%) Rat for this compound: C=C1CN(S(=O)(=O)c2ccc(N(C)C)cc2)CCCN(CC2CCCCC2)CCCN(S(=O)(=O)N2CCCC(c3ccccc3)C2)C1 (stereo not shown) [A38] 24.2

----------
# ASSAY PROTOCOL: In Vitro Microsome Stability Assay (monkey)
# Type: in vitro ADME
# CONDITION SUMMARY: monkey, 30 min, NADPH
// label = MET if Liver Microsome Stability-% Left after 30 min w/ NADPH (%) Monkey is not less than 3%, otherwise NOT MET

C=C1CN(S(=O)(=O)c2ccc(C)cc2)CCCN(CC2CCCCC2)CCCN(S(=O)(=O)c2ccc(OC)cc2)C1 | NOT MET
O=S(=O)(c1ccccc1)N1CCCN(CC2CCCCC2)CCCN(S(=O)(=O)N2CCCCC2)CC2(CC2)C1 | NOT MET
C=C1CN(S(=O)(=O)c2ccc(N(C)C)cc2)CCCN(CC2CCCCC2)CCCN(S(=O)(=O)N2CCCC(c3ccccc3)C2)C1 (stereo not drawn) | MET
C=C1CN(S(=O)(=O)c2ccc(N(C)C)cc2)CCCN(CC2CCCCC2)CCCN(S(=O)(=O)N2CCC(C3CCOCC3)CC2)C1 | NOT MET

Entry CN(C)c1ccc(S(=O)(=O)N2CCCN(CC3CCCCC3)CCCN(S(=O)(=O)N3CCC(c4ccccc4)CC3)C/C(=N/O)C2)cc1 : is its Liver Microsome Stability-% Left after 30 min w/ NADPH (%) Monkey no less than 3%? NOT MET

Entry C=C1CN(S(=O)(=O)c2ccc(N(C)C)cc2)CCCN(CC2CCCCC2)CCCN(S(=O)(=O)N2CCC(c3ccc(Cl)cc3)CC2)C1 : is its Liver Microsome Stability-% Left after 30 min w/ NADPH (%) Monkey no less than 3%? MET

Entry C=C1CN(S(=O)(=O)c2ccc(N(C)C)cc2)CCCN(CC2CCCCC2)CCCN(S(=O)(=O)N2CCc3cccc(Cl)c3C2)C1 : is its Liver Microsome Stability-% Left after 30 min w/ NADPH (%) Monkey no less than 3%? MET

Entry C=C1CN(S(=O)(=O)CC)CCCN(CC2CCCCC2)CCCN(S(=O)(=O)c2ccc(C)cc2)C1 : is its Liver Microsome Stability-% Left after 30 min w/ NADPH (%) Monkey no less than 3%? NOT MET

----------
# Test system: full length IL-2 (amino acids 1-153) fused to Gaussia Luciferase
# ASSAY PROTOCOL: Dox Induced IL2-FL-Gluc Assay
# Type: cell-based
# CONDITION SUMMARY: 24 hr, Dox inducible, 293FRT/TO cells; read-out: 24 hr Dox Inducible IL2FLGluc 293FRT/TO: Mean IC50
MEASURED QUANTITY: pIC50
Please treat pIC50 as minus the base-10 logarithm of the molar concentration.

Cc1cc(F)ccc1N1CCN(S(=O)(=O)N2CCCN(CC3CCCCC3)CCCN(S(=O)(=O)c3ccc(N(C)C)cc3)C[C@H](C)C2)[C@@H](C)C1 [A162] | 6.70
COc1ccccc1[C@@H]1CCCN(S(=O)(=O)N2CCCN(CC3CCCCC3)CCCN(S(=O)(=O)c3ccc(N(C)C)cc3)C[C@H](C)C2)C1 [A210] | 6.35
C[C@H]1CN(S(=O)(=O)c2cccc(N(C)C)c2)CCCN(CC2CCCCC2)CCCN(S(=O)(=O)N2CCc3cc(Cl)ccc3C2)C1 [A168] | 5.94
CC1Cc2ccccc2CN1S(=O)(=O)N1CCCN(CC2CCCCC2)CCCN(S(=O)(=O)c2ccc(N(C)C)cc2)C[C@H](C)C1 (some centres unmarked) [A172] | 7.18
C[C@@H]1CCN(S(=O)(=O)c2ccc(N(C)C)cc2)CCCN(CC2CCCCC2)CCCN1S(=O)(=O)N1CCc2cc(Cl)ccc2C1 [A148] | 5.95

Give measured pIC50 for C[C@H]1CN(S(=O)(=O)c2ccc3oncc3c2)CCCN(CC2CCCCC2)CCCN(S(=O)(=O)N2CCc3cc(Cl)ccc3C2)C1 [A180] (full length IL-2 (amino acids 1-153) fused to Gaussia Luciferase). 4.86

Give measured pIC50 for C[C@H]1CN(S(=O)(=O)c2ccc(N(C)C)cc2)CCCN(CC2CCCCC2)CCCN(S(=O)(=O)N2CC(c3ccccc3)C2)C1 [A101] (full length IL-2 (amino acids 1-153) fused to Gaussia Luciferase). 6.25

Give measured pIC50 for C[C@H]1CN(S(=O)(=O)c2ccc(C(=O)N(C)C)cc2)CCCN(CC2CCCCC2)CCCN(S(=O)(=O)N2CCc3cc(Cl)ccc3C2)C1 [A179] (full length IL-2 (amino acids 1-153) fused to Gaussia Luciferase). 7.14

----------
# ASSAY PROTOCOL: In Vitro Microsome Stability Assay (mouse)
# Type: in vitro ADME
# CONDITION SUMMARY: mouse liver microsomes, 30 min w/ NADPH
MEASURED QUANTITY: Liver Microsome Stability-% Left after 30 min w/ NADPH (%) Mouse
The response must be a number in % with no trailing unit.

# example entries with known answers
C[C@H]1CN(S(=O)(=O)c2ccc(N(C)C)cc2)CCCN(CC2CCCCC2)CCCN(S(=O)(=O)N2CCN(C(=O)c3ccccc3)CC2)C1 | 0.1
COc1cc(F)ccc1N1CCN(S(=O)(=O)N2CCCN([C@@H](C)C3CCCCC3)CCCN(S(=O)(=O)c3ccc(N(C)C)cc3)C[C@H](C)C2)C[C@H]1C | 84.3
CC1Cc2ccccc2CN1S(=O)(=O)N1CCCN(CC2CCCCC2)CCCN(S(=O)(=O)c2ccc(N(C)C)cc2)C[C@H](C)C1 (some centres unmarked) | 3.65
C[C@H]1CN(S(=O)(=O)c2ccc(N(C)C)cc2)CCCN(CC2CCCCC2)CCCN(S(=O)(=O)N2CCN(c3ccc(F)cc3Cl)CC2)C1 | 84.3

State its Liver Microsome Stability-% Left after 30 min w/ NADPH (%) Mouse for this compound: CN(C)c1ccc(S(=O)(=O)N2CCCN(CC3CCCCC3)CCCN(S(=O)(=O)N3CCCCC3)CC2)cc1 0.15

State its Liver Microsome Stability-% Left after 30 min w/ NADPH (%) Mouse for this compound: C[C@H]1CN(S(=O)(=O)c2ccc(N(C)C)cc2)CCCN(CC2CCCCC2)CCCN(S(=O)(=O)N2CCN(c3ccccc3OC(F)(F)F)CC2)C1 49.2

----------
A collection of compounds and their measured Liver Microsome Stability-% Left after 30 min w/ NADPH (%) Monkey
# ASSAY PROTOCOL: In Vitro Microsome Stability Assay (monkey)
# Type: in vitro ADME
# CONDITION SUMMARY: monkey, 30 min, NADPH
The response must be a number in % with no trailing unit.

# example entries with known answers
C=C1CN(S(=O)(=O)c2ccc(N(C)C)cc2)CCCN(CC2CCCCC2)CCCN(S(=O)(=O)N2CCC(C3CCCCC3)CC2)C1 | 57.8
C[C@H]1CN(S(=O)(=O)c2ccc(N(C)C)cc2)CCCN(CC2CCCCC2)CCCN(S(=O)(=O)N2CCN(c3ccc(F)cc3)CC2)C1 | 32.8

State its Liver Microsome Stability-% Left after 30 min w/ NADPH (%) Monkey for this compound: C=C1CN(S(=O)(=O)c2ccc(C)cc2)CCCN(CC2CCCCC2)CCCN(S(=O)(=O)c2ccc(N(C)C)cc2)C1 1.17

State its Liver Microsome Stability-% Left after 30 min w/ NADPH (%) Monkey for this compound: C=C1CN(S(=O)(=O)c2ccc(N(C)C)cc2)CCCN(CC2CCCCC2)CCCN(S(=O)(=O)N2CCC(OC(C)C)CC2)C1 0.35

State its Liver Microsome Stability-% Left after 30 min w/ NADPH (%) Monkey for this compound: CN(C)c1ccc(S(=O)(=O)N2CCCN(CC3CCCCC3)CCCN(S(=O)(=O)N3CCC(O)CC3)CC3(CC3)C2)cc1 0.06

State its Liver Microsome Stability-% Left after 30 min w/ NADPH (%) Monkey for this compound: C=C1CN(S(=O)(=O)c2c(F)cc(N(C)C)cc2F)CCCN(CC2CCCCC2)CCCN(S(=O)(=O)N2CCC(c3ccccc3)CC2)C1 29.2

State its Liver Microsome Stability-% Left after 30 min w/ NADPH (%) Monkey for this compound: C[C@@H]1CN(S(=O)(=O)c2ccc(N(C)C)cc2)CCCN(CC2CCCCC2)CCCN(S(=O)(=O)N2CCC(c3ccccc3)CC2)C1 35.7
